This section presents compounds with their documented Maximum Tolerated Concentration values.
System: wild-type zebrafish larvae
protocolText: Maximum tolerated concentration (MTC) determination in zebrafish larvae
Assay type: in vivo, Danio rerio
measurementParameters: after 24-hour exposure; Table 3
measurementLabel: Maximum Tolerated Concentration (µM)

| smilesString | system | measurementLabel | resultUnits | measurement |
| --- | --- | --- | --- | --- |
| CCCCc1oc2ccccc2c1C(=O)c1cc(I)c(OCCNCC)c(I)c1.Cl | wild-type zebrafish larvae | Maximum Tolerated Concentration | µM | 3 |
| COc1c(Br)cc(CN2C(=O)C(=O)c3ccccc32)cc1Br | wild-type zebrafish larvae | Maximum Tolerated Concentration | µM | 30 |
| CCCCc1oc2ccccc2c1C(=O)c1ccc(OCCN(CC)CC)cc1 | wild-type zebrafish larvae | Maximum Tolerated Concentration | µM | 3 |

###

Ratio of response of ACh with modulator to response of ACh alone, 0.1 μM ACh by entry:
system: M1 muscarinic receptors expressed in CHO cells (Homo sapiens)
Construct: expressed in transfected cells; host or cells: CHO (CHO-hM1, stably transfected)
Sequence (P11229 1-460): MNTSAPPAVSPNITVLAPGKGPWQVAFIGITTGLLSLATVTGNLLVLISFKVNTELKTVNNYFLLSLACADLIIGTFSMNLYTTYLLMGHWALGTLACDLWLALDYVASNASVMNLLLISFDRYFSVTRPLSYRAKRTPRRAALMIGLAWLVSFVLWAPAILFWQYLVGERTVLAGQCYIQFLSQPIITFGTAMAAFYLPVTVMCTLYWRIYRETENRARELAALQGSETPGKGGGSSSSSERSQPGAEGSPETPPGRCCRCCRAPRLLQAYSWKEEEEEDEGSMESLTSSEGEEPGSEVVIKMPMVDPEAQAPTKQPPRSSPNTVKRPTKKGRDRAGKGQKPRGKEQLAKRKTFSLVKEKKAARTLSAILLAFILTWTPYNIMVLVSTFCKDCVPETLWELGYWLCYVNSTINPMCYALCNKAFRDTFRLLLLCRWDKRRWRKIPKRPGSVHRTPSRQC
protocolText: [3H]-arachidonic acid release screen with and without ACh and modulator
Assay type: cell-based
measurementParameters: 10 μM modulator, 0.1 μM ACh; Table 1
measurementLabel: Ratio of response of ACh with modulator to response of ACh alone, 0.1 μM ACh

| molecule | system | measurement |
| --- | --- | --- |
| COc1cc(CN2C(=O)C(=O)c3ccccc32)cc(OC)c1OC | M1 muscarinic receptors expressed in CHO cells (Homo sapiens) | 1.37 |
| O=C1C(=O)N(Cc2ccc(Br)cc2)c2ccccc21 [VU0119498, reference compound] | M1 muscarinic receptors expressed in CHO cells (Homo sapiens) | 1.22 |
| CCN(CC)CCOc1ccc(CN2C(=O)C(=O)c3ccccc32)cc1 | M1 muscarinic receptors expressed in CHO cells (Homo sapiens) | 0.08 |
| COc1ccc(CN2C(=O)C(=O)c3ccccc32)cc1F | M1 muscarinic receptors expressed in CHO cells (Homo sapiens) | 1.17 |
| COc1cccc(CN2C(=O)C(=O)c3ccccc32)c1 | M1 muscarinic receptors expressed in CHO cells (Homo sapiens) | 1.06 |
| CCCCc1oc2ccc(NS(C)(=O)=O)cc2c1C(=O)c1ccc(OCCCN(CCCC)CCCC)cc1 [Dronedarone, reference compound] | M1 muscarinic receptors expressed in CHO cells (Homo sapiens) | 0.25 |
